Reported % inh. values for the following compounds.
system: soluble epoxide hydrolase (sEH); assay: Fluorescent assay for soluble epoxide hydrolase (CMNPC substrate), percent inhibition at the recited concentration; type: biochemical; settings: Inhibition Conc. 200 nM

{"chemicalString": "CC(C)(C)OC(=O)N1CCC(NC(=O)Nc2ccc(S(C)(=O)=O)cc2)CC1", "readoutLabel": "% inh.", "val": "83%"}
{"chemicalString": "CC(=O)N1CCC(NC(=O)NC23CC4CC(C2)C(F)(F)C(C4)C3)CC1", "readoutLabel": "% inh.", "val": "76%"}
{"chemicalString": "CC(C)(C)OC(=O)N1CCC(NC(=O)NC2CCCCCCC2)CC1", "readoutLabel": "% inh.", "val": "97%"}

# evaluate next
Query % inh. for COCC(=O)N1CCC(NC(=O)NC23CC4CC(CC(C4)C2)C3)CC1 94%

###

Test system: soluble epoxide hydrolase (sEH)
Test: Fluorescent assay for soluble epoxide hydrolase (CMNPC substrate), percent inhibition at the recited concentration
Format: biochemical
Details: Inhibition Conc. 200 nM
Protocol: Fluorescent Assay for Mouse and Human Soluble Epoxide Hydrolase Recombinant mouse sEH (MsEH) and human sEH (HsEH) were produced in a baculovirus expression system as previously reported. […] Protein concentration was quantified using the Pierce BCA assay using bovine serum albumin as the calibrating standard. […] The assay was also evaluated with similar results in crude cell lysates or homogenate of tissues. The IC50s for each inhibitor were determined according to the following procedure: […] […]
Reported % inh. values for the following compounds.
Numbers only here, please. The scale is %.

Query % inh. for O=C(Nc1ccc(C(F)(F)F)cc1)NC1CCN(c2nccs2)CC1 98

Query % inh. for O=C(NC1CCN(C(=O)N2CCOCC2)CC1)NC12CC3CC(CC(C3)C1)C2 95

Query % inh. for O=C(Nc1ccc(OC(F)(F)F)cc1)NC1CCN(C(=O)N2CCOCC2)CC1 98

Query % inh. for Cc1nc2ccc(NC(=O)NC3CCN(C(=O)OC(C)(C)C)CC3)cc2s1 77

Query % inh. for CC(=O)N1CCC(NC(=O)NC2CCCCCCC2)CC1 92

Query % inh. for CC(=O)N1CCC(NC(=O)NCc2ccc(C(F)(F)F)cc2)CC1 93

Query % inh. for CC(C)(C)OC(=O)N1CCC(NC(=O)NC2CCCCCC2)CC1 100

###

Tested on: soluble epoxide hydrolase (sEH)
Test: Fluorescent assay for soluble epoxide hydrolase (CMNPC substrate), percent inhibition at the recited concentration
Assay type: biochemical
Conditions: Inhibition Conc. 2000 nM
Procedure: Fluorescent Assay for Mouse and Human Soluble Epoxide Hydrolase Recombinant mouse sEH (MsEH) and human sEH (HsEH) were produced in a baculovirus expression system as previously reported. […] Protein concentration was quantified using the Pierce BCA assay using bovine serum albumin as the calibrating standard. […] The assay was also evaluated with similar results in crude cell lysates or homogenate of tissues. The IC50s for each inhibitor were determined according to the following procedure: […] […]
Tag: Criterion met if measured % inh. is not below 40%, Criterion not met if it is.

Recorded results for 6 compounds are shown here.
{"chemicalString": "COC(=O)c1ccc(CNC(=O)NC2CCN(C(C)=O)CC2)cc1", "labelClass": "Criterion met"}
{"chemicalString": "CC(=O)N1CCC(NC(=O)NC2CCC3(CCCC3)CC2)CC1", "labelClass": "Criterion met"}
{"chemicalString": "COC(=O)c1ccc(NC(=O)NC2CCN(C(=O)OC(C)(C)C)CC2)cc1", "labelClass": "Criterion met"}
{"chemicalString": "O=C(Nc1ccc(OC(F)(F)F)cc1)NC1CCN(c2ccc(F)cc2)CC1", "labelClass": "Criterion met"}
{"chemicalString": "CC(C)(C)C(=O)N1CCC(NC(=O)Nc2ccc(S(C)(=O)=O)cc2)CC1", "labelClass": "Criterion met"}
{"chemicalString": "CC(=O)N1CCC(NC(=O)Nc2ccc(C(=O)O)cc2)CC1", "labelClass": "Criterion not met"}

Test whether the compound CC(=O)N1CCC(NC(=O)NC2CCN(C)CC2)CC1 records % inh. of 40% or higher. Criterion not met

Test whether the compound CC(=O)N1CCC(NC(=O)Nc2ccc3c(c2)OCCO3)CC1 records % inh. of 40% or higher. Criterion met
